# Measurement protocol: Intrinsic clearance in human liver microsomes at 1 uM in presence of NADPH measured up to 30 mins by LC-MS/MS analysis
# Format: ADME, Microsome
# Conditions used: read-out: CLH
Give measured microsomal CLint at 1 µM for each item. Keep answers brief.
Give bare numbers, in µL/min/mg.

(Q) State its microsomal CLint at 1 µM for this compound: C=CC(=O)N[C@@H]1CC[C@H](Nc2ncnc(N)c2-c2ccc(Oc3ccccc3)cc2)C1 (relative stereo)
(A) 202

(Q) Please supply the value of reported microsomal CLint at 1 µM for the item `C=CC(=O)N1CCC(O)(CNc2ncnc(N)c2-c2ccc(Oc3ccccc3)cc2)CC1`
(A) 68

Please supply microsomal CLint at 1 µM for each of the following items, keeping them in order.
1. C=CC(=O)N1CCCC(Nc2ncnc(N)c2-c2ccc(Oc3ccccc3)cc2)C1 (single isomer, unassigned)
2. C=CC(=O)N[C@H]1CC[C@@H](Nc2ncnc(N)c2-c2ccc(Oc3ccccc3)cc2)CC1
3. C=CC(=O)N1CCC(CNc2ncnc(N)c2-c2ccc(Oc3ccncc3)cc2)CC1
4. C=CC(=O)N1CCC(CNc2ncnc(N)c2-c2cc(F)c(Oc3ccccc3)cc2F)CC1
5. C=CC(=O)N1CCC(CNc2ncnc(N)c2-c2ccc(Oc3cccc(F)c3)cc2)CC1

(A)
1. 598
2. 41
3. 688
4. 143
5. 199

Value source: ChEMBL document CHEMBL4373703
